Measured values drawn from the nanobody polyreactivity screen of Harvey et al. (2022) for this set.

Run description: yeast display, Sf9 membrane polyspecificity reagent, FACS + sequencing; frameworks hold sequencing errors
Quantity kind: polyreactivity (PSR sort gate)

// solved cases for polyreactivity (PSR sort gate) follow
Monomer sequence	polyreactivity (PSR sort gate)
QVQLVESGGGLVQAGGSLRLSCAASGFTFSDYAMGWYRQAPGKERELVAAISTRGSSTYYADSVKGRFTISRDNAKNTVYLQMNSLKPEDTAVYYCNAVGSYSGYYYWGQGTQVTVSS	high polyreactivity
QVQLVESGGGLVQAGGRLRLNCAASVITFPYNAMGWYRQATGKERELVAAITRSGASTYYADSVKGRFTISRDNSKNTVYVQMNSLKPEDTAVYYCAAKVIGRPRPYYYWGQGTQVTVSS	high polyreactivity
QVQLVESGGGLVQAGGSLRLSCAASGSIFSYYAMGWYRQAPGKERELVAAIRWRTGNTYYADSVKGRFTISRDNAMNTVYLQMNSLKPEDTAVYYCNAVYRYNYGYREYEYWGQGTQVTVSS	high polyreactivity
QVQLVESGGGLVQAGGSLRLSCAASGFTFAYYDMGWYRQAPGKERELVAAITWDGGSTYYADSVKGRFTISRDNAKNTVYLQMNSLKPEDTAVYYCAAPSGPYGYDYWGQGTQVTVSS	high polyreactivity
QVQLVESGGGLVQAGGSLRISCAPSGLIFKYNAMGWYRQAPGKERDLVADINRSGGSTYYADSVKCRFTISRDNAKNTVYLQMNSLKPEDTEVYYCAAERDSLYWVLFGYWGQGTQVTVSS	low polyreactivity
QVQLVESGGGIVQAGGSLRLSCAASGSTFRRYAMGWYRQAPGKERELVASISWSGGSTSYADSVKGRFTISRDNAKNTVYLQMNSLKPEDTAGYYCAAVRYYWGEYYARYAYEYWGQGTQVTVSS	high polyreactivity
QVQLVESGRGLVRAGGSLPFSCAASAGNFMRYAMGWYRQAPGKERELVAAITANGGSTYYADSVKGRFTISRDNAKNTVYLQMNSLKPEDTAVYYCNADTGVRSYRRDYWGQGSQVTVSS	low polyreactivity
QVQLVESGGGVVQAGGSLRLSCAASGSTFYLYDMGWYRQEPGKERELVATITSGTSTTYADSVKGRYTISRDNAKNTVYLQMNSLKPEDTAVYYCNATDVGIITVGYGHGGYYWGQGTQVTVSS	low polyreactivity
QVQLVESGGGLVQAGGSLRLSCAASGSIFYVYAMGWYRQAPGKEREMVAAISKSGGSTYYADSVKGRFTISRDNAKNTVYLQMNSLKPEDTADYYCAAYFSYGSIIEDYWGQGTQVTVSS	low polyreactivity
QVQLVESGGGLVQAGGSLRLSCAASGSTFLPYGMGWYRQAPGKERELVAAITQRGGSTYYADSVKGRFTISRDNAKNTVYLQMNSLKPEDTAVYYCAARYTGRRRLWTGPGYEYWGQGTQVTVSS	high polyreactivity

Measured polyreactivity (PSR sort gate) of QVQLVESGGGLFKAGGSLRLSCAASGSTLVTYAKGWYRQAPGKERELVAAISWRGGSTYYADSVKGRYTISRDNAKNTVYLQMNSLKPEDTEVYYCNKMRAYKESETYYFWGQGTQVTVSS : low polyreactivity

The measured polyreactivity (PSR sort gate) associated with QVQLEESRGGLGQAGGSLRLICAASGRTFAYNPMGWSRQAPGKERELVSAITWSGGSTYYADSVKGRFTISRDNAKNTVYLQMNSLKPEDTAVYYCAREWFQYSPYHRFDYWGQGTQVTVSS reads high polyreactivity

QVQLVESGGGLVQAGGSLRLSCAASGRIFKVYAMGWYRQAPGKERELVASIRWNTGSTYYADSVKGRFTISRDNAKNTVYLQMNSLKPEDTAVYYCNARGYYQGRYGYWGQGTQVTVSS yielded polyreactivity (PSR sort gate) of high polyreactivity

Query QVQLVESGGGLVQAGGSLRLSCAASGGTFSTYTMGCYRQAPGKERELVAGISGRGGSTRYADSVKGRFTISRDNAKNTVYLQMNSLKPEDTAVYYCNARKRSYWGIVFVGLYDYWGQGTQVTVSS yields polyreactivity (PSR sort gate) of high polyreactivity

Given item QVQLVESGGGLVQAGGSLRLSCAASGGTFVRNTMGWSRQAPGKERELVAGITKNGGSTYYADSVKGRFTISRDNAKNTVYLQMNSLKPEVTAVYYCAIYVSWPLYYYWGQGTQVTVSS , the value recorded as its polyreactivity (PSR sort gate) is low polyreactivity

The recorded polyreactivity (PSR sort gate) for entry QVQLVESGGGLVQAGGSLRLICAASGFTFTDYAMGWYRQAPGKERELVAVIDSGGSTYYADSVKGRFTISRDNAKNTVYLQMNSLKPEDTAVYYCAAYNGTAPSEDYLGQGTQVTVSS equals low polyreactivity

The measured polyreactivity (PSR sort gate) associated with QVQLVESGGGLVQAGGRLRLSCAASGSIFASYAMGWYRQAPGKERELVAAITSDGNTYYADSVKGRFTISRDNAKNTVYLPMNSLIPEDTAVYYCAADRYSTYPYAKGTEFYYWGQGTQVTVSS reads low polyreactivity

The recorded polyreactivity (PSR sort gate) for QVQLVESGGGLVQAGGSLRISCAASGNIFVDYAMGWYTQAPGKERELVATITRTGDSTTYADSVKGRFTISRDNAKNTVYLQMNSLKPEDTAVYYCNTDLRLVYRTKGFISWGYDYWGQGTQVTVSS is low polyreactivity

GET /value?item= QVQLVESGGGLVQAGGSLRLSCAASGSTFQWYTMGWYRQAPGKERELVAAITWSGASTYYADSVKGRFTISRDNAKNTVYLQMNSLKPDYTAVYYCAADWRRGSGFYYWGQGTQVTVSS &field=polyreactivity (PSR sort gate) returns high polyreactivity

Looking up QVQLVESGGGLVQAGGSLRLSCAASGSILTDNAMGWYRQAPGKERELVASITGSGGSTYYADSVKGRFTISRDNAKNTVYLQMNSLKPEDTAVYYCAASYRLRYGYWGQGTQVTVSS , I see its polyreactivity (PSR sort gate) listed as high polyreactivity

Lab note: measured polyreactivity (PSR sort gate) of QVQLVESGGGLGQAGGSLRLSCAASGSIFYRNARGWYRQAPGKERELVASITSGGRTNYADSVKGRFTISRDNAKYSVYLQMNSLKPEDTAVFYCARGRASYTTSGPTPYTGYGYWRQGTQVTVSS was low polyreactivity
